Molecular target: β-lactamase (Citrobacter freundii, UniProt P05193)
Sequence (P05193 21-381): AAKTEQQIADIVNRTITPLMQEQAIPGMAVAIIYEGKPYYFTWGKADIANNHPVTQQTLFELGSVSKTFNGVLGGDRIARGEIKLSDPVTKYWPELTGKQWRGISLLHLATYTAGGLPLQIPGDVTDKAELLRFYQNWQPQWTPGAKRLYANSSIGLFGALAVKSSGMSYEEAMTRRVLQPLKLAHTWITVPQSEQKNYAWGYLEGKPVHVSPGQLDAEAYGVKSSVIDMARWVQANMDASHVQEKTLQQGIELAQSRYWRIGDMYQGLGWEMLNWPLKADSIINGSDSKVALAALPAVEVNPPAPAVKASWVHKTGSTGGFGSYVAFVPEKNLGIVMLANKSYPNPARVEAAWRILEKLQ
Settings: read-out: IC50 C. freundii 1982 (β-lactamase inhibition); pH 7
pIC50: −log10 of the molar value.

molecule: C[C@]1(Cn2ccnn2)[C@H](C(=O)O)N2C(=O)C[C@H]2S1(=O)=O [Tazobactam]
pIC50: 6.05

* * *

Target: β-lactamase
Format: biochemical
Settings: pH 7; read-out: IC50 E. coli CF 102 (β-lactamase inhibition)
propertyName: IC50 (µM)

molecule: C[C@]1(/C=C\C#N)[C@H](C(=O)O)N2C(=O)C[C@H]2S1(=O)=O [5c (cis nitrile)]
measuredNumber: 0.126
//
molecule: C[C@]1(/C=C\C(N)=O)[C@H](C(=O)O)N2C(=O)C[C@H]2S1(=O)=O [6c (cis amide)]
measuredNumber: 0.13
//
molecule: C[C@]1(/C=C/C#N)[C@H](C(=O)O)N2C(=O)C[C@H]2S1(=O)=O [5c (trans nitrile)]
measuredNumber: 0.681
//
molecule: CCOC(=O)/C=C/[C@@]1(C)[C@H](C(=O)O)N2C(=O)C[C@H]2S1(=O)=O [2c (trans ethyl ester)]
measuredNumber: 0.456

* * *

Tested on: E. coli
Experiment: In vitro activity of combinations with selected antibiotics against β-lactamase over-producer strains, E. coli
Format: cell-based
Conditions: β-lactamase over-producer strain; combinations: constant inhibitor concentration 4 mg/l; unit assumed
Reported MIC E. coli is given for each of the following compounds.

compound: CC(C)(O/N=C(\C(=O)N[C@@H]1C(=O)N2C(C(=O)[O-])=C(C[n+]3ccccc3)CS[C@H]12)c1csc(N)n1)C(=O)O [Ceftazidime]
measurementUnit: µg/mL
valuePrefix: =
MIC E. coli: 32

compound: CO/N=C(\C(=O)N[C@@H]1C(=O)N2C(C(=O)O)=C(CSc3nc(=O)c(=O)[nH]n3C)CS[C@H]12)c1csc(N)n1 [Ceftriaxone]
measurementUnit: µg/mL
valuePrefix: =
MIC E. coli: 16

compound: CCN1CCN(C(=O)N[C@@H](C(=O)N[C@@H]2C(=O)N3[C@@H]2SC(C)(C)[C@@H]3C(=O)O)c2ccccc2)C(=O)C1=O [Piperacillin]
measurementUnit: µg/mL
valuePrefix: >
MIC E. coli: 64

compound: CC1(C)S[C@@H]2[C@H](NC(=O)[C@H](NC(=O)c3cnc4cccnc4c3O)c3ccccc3)C(=O)N2[C@H]1C(=O)O [Apalcillin]
measurementUnit: µg/mL
valuePrefix: >
MIC E. coli: 64

* * *

Reported MIC E. cloacae is given for each of the following compounds.
Test system: E. cloacae
Assay: In vitro activity of combinations with selected antibiotics against β-lactamase over-producer strains, E. cloacae
Format: cell-based
Details: β-lactamase over-producer strain; combinations: constant inhibitor concentration 4 mg/l; unit assumed

compound: CCN1CCN(C(=O)N[C@@H](C(=O)N[C@@H]2C(=O)N3[C@@H]2SC(C)(C)[C@@H]3C(=O)O)c2ccccc2)C(=O)C1=O
MIC E. cloacae: > 128 µg/mL
//
compound: CC(C)(O/N=C(\C(=O)N[C@@H]1C(=O)N2C(C(=O)[O-])=C(C[n+]3ccccc3)CS[C@H]12)c1csc(N)n1)C(=O)O
MIC E. cloacae: > 64 µg/mL
//
compound: CO/N=C(\C(=O)N[C@@H]1C(=O)N2C(C(=O)O)=C(CSc3nc(=O)c(=O)[nH]n3C)CS[C@H]12)c1csc(N)n1
MIC E. cloacae: > 64 µg/mL
//
compound: CC1(C)S[C@@H]2[C@H](NC(=O)[C@H](NC(=O)c3cnc4cccnc4c3O)c3ccccc3)C(=O)N2[C@H]1C(=O)O
MIC E. cloacae: > 128 µg/mL

Values compiled from patent US5644053A.
